Data credit: patent US11547681B2

test: in vitro; conditions: male, Sprague-Dawley, rat, s9, Half-life, calculated (in parentheses)
PARAMETER: half-life at 1 μM (min)
Numbers only, in min.

So what does the record say about half-life at 1 μM for CCCCC/C=C\C/C=C\CCCCCCCC(=O)OCC(COC(=O)CCC(=O)OCCNC(=O)CCCCCCCCCCCCCCC)OC(=O)CCCCCCC/C=C\C/C=C\CCCCC (stereo not shown) ? 81

----------
test: Liver microsomal stability, rat; conditions: male, Sprague-Dawley, microsomes, Clint, control compound, Example 4 control run
PARAMETER: microsomal CLint (µL/min/mg)
One number for each entry, in µL/min/mg.

So what does the record say about microsomal CLint for C[C@]12CC[C@H]3[C@@H](CCC4=CC(=O)CC[C@@]43C)[C@@H]1CC[C@@H]2O [Testosterone, testosterone, reference compound] ? 1030

----------
assay: Liver microsomal stability, human; details: both, human, microsomes, CLint, control compound, human liver microsomes
PARAMETER: microsomal CLint
Kindly format the answer as number then unit.

So what does the record say about microsomal CLint for C[C@]12CC[C@H]3[C@@H](CCC4=CC(=O)CC[C@@]43C)[C@@H]1CC[C@@H]2O [Testosterone, testosterone, reference compound] ? 151 µL/min/mg

----------
experiment: in vitro; conditions: male, Beagle, dog, 30 min, 1 μM
Answer NO if Measured concentration of analyte PEA, 30 min is under 0.2 µM, and YES if it is 0.2 µM or more.

Known results for compounds:
[
  {
    "COMPOUND": "CC/C=C\\C/C=C\\C/C=C\\C/C=C\\C/C=C\\CCCC(=O)OCCNC(=O)CCCCCCCCCCCCCCC [Compound I-5]",
    "CAT": "NO"
  },
  {
    "COMPOUND": "CCCCCCCCCCCCCCCC(=O)NCCOC(=O)CCC(=O)OCC(O)CO (stereo not shown) [Compound I-9]",
    "CAT": "YES"
  },
  {
    "COMPOUND": "CCCCCCCCCCCCCCCC(=O)NCCOC(=O)CCC [Compound I-2]",
    "CAT": "YES"
  },
  {
    "COMPOUND": "CCCCC/C=C\\C/C=C\\CCCCCCCC(=O)OCCNC(=O)CCCCCCCCCCCCCCC [Compound I-6]",
    "CAT": "NO"
  },
  {
    "COMPOUND": "CCCCCCCCCCCCCCCC(=O)NCCOC(=O)CCC(=O)OCC(COC(=O)CCCCCCC)OC(=O)CCCCCCC (stereo not shown) [Compound I-3, PEA-Succinate-Glycerol-Di-Caprylic]",
    "CAT": "NO"
  }
]

Next:
Identify whether the reported Measured concentration of analyte PEA, 30 min of the following compound is 0.2 µM or greater: CCCCCCCCCCCCCCCC(=O)NCCOC(=O)CCC(=O)OC[C@H]1O[C@@](CO)(O[C@H]2O[C@H](CO)[C@@H](O)[C@H](O)[C@H]2O)[C@@H](O)[C@@H]1O [Compound I-7] YES

----------
test: in vitro; details: male, CD-1, mouse, 20 min, 1 μM
PARAMETER: Concentration (μM) of analyte PEA, 20 min
Kindly format the answer as number then unit.

[
  {
    "COMPOUND": "CCCCC/C=C\\C/C=C\\CCCCCCCC(=O)OCCNC(=O)CCCCCCCCCCCCCCC",
    "RESULT": "0.17 µM"
  },
  {
    "COMPOUND": "CC/C=C\\C/C=C\\C/C=C\\C/C=C\\C/C=C\\CCCC(=O)OCCNC(=O)CCCCCCCCCCCCCCC",
    "RESULT": "0.076 µM"
  },
  {
    "COMPOUND": "CCCCCCCCCCCCCCCC(=O)NCCOC(=O)CCC(=O)OCC(COC(=O)CCCCCCC)OC(=O)CCCCCCC (stereo not shown) [Compound I-3, PEA-Succinate-Glycerol-Di-Caprylic]",
    "RESULT": "0.024 µM"
  }
]

// below: Concentration (μM) of analyte PEA, 20 min requested for another compound
So what does the record say about Concentration (μM) of analyte PEA, 20 min for CCCCCCCCCCCCCCCC(=O)NCCOC(=O)CCC(=O)OCC(COC(=O)CCC)OC(=O)CCC (stereo not shown) ? 0.059 µM

----------
experiment: Simulated intestinal fluid (SIF) stability in the presence of various enzymes; assay type: in vitro ADME; conditions: SIF + Elastase, 60 min, 1 μM
PARAMETER: % Remaining of Initial (n = 1) (%)
Give bare numbers, in %.

State the recorded % Remaining of Initial (n = 1) for every item in the following list.
1. CCCCC/C=C\C/C=C\CCCCCCCC(=O)OCC(COC(=O)CCC(=O)OCCNC(=O)CCCCCCCCCCCCCCC)OC(=O)CCCCCCC/C=C\C/C=C\CCCCC (stereo not shown) [Compound I-13]
2. CC/C=C\C/C=C\C/C=C\C/C=C\C/C=C\CCCC(=O)OCCNC(=O)CCCCCCCCCCCCCCC [Compound I-5]
3. CCCCCCCCCCCCCCCC(=O)NCCOC(=O)CCC(=O)OCC(COC(=O)CCC)OC(=O)CCC (stereo not shown) [Compound I-11]
4. CCCCCCCCCCCCCCCC(=O)NCCOC(=O)CCC [Compound I-2]

5.6
48
33
30

----------
test: Pharmacokinetics of PEA after intravenous administration in male Sprague-Dawley rats; type: in vivo, Sprague-Dawley rat; settings: male, Sprague-Dawley, rat, in vivo, iv, 1 mg/kg, Plasma concentration of PEA, Mean
PARAMETER: concentration at 2 hr
Kindly format the answer as number then unit.

So what does the record say about concentration at 2 hr for CCCCCCCCCCCCCCCC(=O)NCCO [PEA, palmitoylethanolamide] ? 6.91 ng/mL

----------
experiment: in vitro; settings: both, human, s9, 20 min, 1 μM
PARAMETER: % Remaining of Initial (n = 1), 20 min (%)
One number for each entry, in %.

[
  {
    "MOLECULE": "CCCCCCCCCCCCCCCC(=O)NCCOC(=O)CCC(=O)OC[C@H]1O[C@@](CO)(O[C@H]2O[C@H](CO)[C@@H](O)[C@H](O)[C@H]2O)[C@@H](O)[C@@H]1O",
    "UNIT_TAG": "%",
    "% Remaining of Initial (n = 1), 20 min": 22
  }
]

State the recorded % Remaining of Initial (n = 1), 20 min for every item in the following list.
1. CC/C=C\C/C=C\C/C=C\C/C=C\C/C=C\CCCC(=O)OCCNC(=O)CCCCCCCCCCCCCCC
2. CCCCCCCCCCCCCCCC(=O)NCCOC(=O)CCC(=O)OCC(COC(=O)CCC)OC(=O)CCC (stereo not shown)
3. CCCCC/C=C\C/C=C\CCCCCCCC(=O)OCCNC(=O)CCCCCCCCCCCCCCC

[49, 1.2, 103]

----------
Answer each item with its documented Measured concentration of analyte PEA, 20 min.
assay: in vitro; settings: male, CD-1, mouse, 20 min, 1 μM
Kindly format the answer as number then unit.

For orientation, consider the following solved cases.
[
  {
    "MOLECULE": "CCCCC/C=C\\C/C=C\\CCCCCCCC(=O)OCCNC(=O)CCCCCCCCCCCCCCC",
    "RESULT": "0.039 µM"
  },
  {
    "MOLECULE": "CCCCCCCCCCCCCCCC(=O)NCCOC(=O)CCC",
    "RESULT": "0.19 µM"
  },
  {
    "MOLECULE": "CCCCCCCCCCCCCCCC(=O)NCCOC(=O)CCC(=O)OCC(O)CO (stereo not shown)",
    "RESULT": "0.18 µM"
  }
]

State the recorded Measured concentration of analyte PEA, 20 min for every item in the following list.
1. CC/C=C\C/C=C\C/C=C\C/C=C\C/C=C\CCCC(=O)OCCNC(=O)CCCCCCCCCCCCCCC
2. CCCCCCCCCCCCCCCC(=O)NCCOC(=O)CCC(=O)OCC(COC(=O)CCCCCCC)OC(=O)CCCCCCC (stereo not shown) [Compound I-3, PEA-Succinate-Glycerol-Di-Caprylic]
3. CCCCCCCCCCCCCCCC(=O)NCCOC(=O)CCC(=O)OC[C@H]1O[C@@](CO)(O[C@H]2O[C@H](CO)[C@@H](O)[C@H](O)[C@H]2O)[C@@H](O)[C@@H]1O
4. CCCCCCCCCCCCCCCC(=O)NCCOC(=O)CCC(=O)OCC(COC(=O)CCC)OC(=O)CCC (stereo not shown)

1: 0.052 µM; 2: 0.025 µM; 3: 0.18 µM; 4: 0.18 µM

----------
test: Plasma stability (37° C., pH 7.4), mouse; assay type: in vitro ADME, CD-1 mouse; settings: mouse plasma, test article 1 μM, 37° C., pH 7.4, 15 min
PARAMETER: % Remaining of Initial (n = 1), 15 min (%)
One number for each entry, in %.

[
  {
    "COMPOUND": "CCCCCCCCCCCCCCCC(=O)NCCOC(=O)CCC(=O)OCC(O)CO (stereo not drawn) [Compound I-9]",
    "% Remaining of Initial (n = 1), 15 min / %": 49
  }
]

// below: % Remaining of Initial (n = 1), 15 min requested for another compound
So what does the record say about % Remaining of Initial (n = 1), 15 min for CCCCCCCCCCCCCCCC(=O)NCCOC(=O)CCC [Compound I-2] ? 72
